I'd be grateful if you could share measured IC50, NF-kB-luciferase, 750 nM Lung Tryptase for these entries.
# subject of test: full length human PAR-2 (human, UniProt P55085 26-397)
# Sequence (P55085 26-397 G138A limits assumed): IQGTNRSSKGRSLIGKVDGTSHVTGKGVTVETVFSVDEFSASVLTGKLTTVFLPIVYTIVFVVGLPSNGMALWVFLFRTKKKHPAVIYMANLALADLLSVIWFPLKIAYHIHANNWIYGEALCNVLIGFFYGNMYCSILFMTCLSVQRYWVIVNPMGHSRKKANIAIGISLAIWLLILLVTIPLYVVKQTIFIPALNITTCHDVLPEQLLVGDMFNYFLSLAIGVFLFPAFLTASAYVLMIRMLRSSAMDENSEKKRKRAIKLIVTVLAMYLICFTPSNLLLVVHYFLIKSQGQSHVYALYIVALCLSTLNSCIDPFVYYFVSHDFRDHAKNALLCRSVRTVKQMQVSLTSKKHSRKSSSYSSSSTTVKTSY
# assay notes: cell-based or functional assay
Numbers only, in nM.

# return IC50, NF-kB-luciferase, 750 nM Lung Tryptase for each item in the list
1. H4H581P (antibody, human IgG4, V domains shown, also called mAb H4H581P; H1H581P variable regions) VH: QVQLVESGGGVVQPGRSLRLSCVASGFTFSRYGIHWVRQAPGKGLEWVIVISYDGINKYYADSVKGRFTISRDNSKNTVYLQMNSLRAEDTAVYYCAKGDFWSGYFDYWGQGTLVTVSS VL: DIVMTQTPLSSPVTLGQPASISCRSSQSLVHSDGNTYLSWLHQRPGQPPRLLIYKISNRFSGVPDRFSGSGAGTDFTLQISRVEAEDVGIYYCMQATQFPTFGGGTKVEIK
2. H4H591N (antibody, human IgG4, V domains shown, also called H2M591N variable regions) VH: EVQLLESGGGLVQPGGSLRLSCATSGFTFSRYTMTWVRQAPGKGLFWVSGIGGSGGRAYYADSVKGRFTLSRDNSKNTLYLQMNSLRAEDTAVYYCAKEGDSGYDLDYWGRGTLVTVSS VL: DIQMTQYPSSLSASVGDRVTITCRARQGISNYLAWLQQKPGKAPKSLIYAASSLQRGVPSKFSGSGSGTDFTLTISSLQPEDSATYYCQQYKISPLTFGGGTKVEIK
3. H4H618N (antibody, human IgG4, V domains shown, also called H2M618N variable regions) VH: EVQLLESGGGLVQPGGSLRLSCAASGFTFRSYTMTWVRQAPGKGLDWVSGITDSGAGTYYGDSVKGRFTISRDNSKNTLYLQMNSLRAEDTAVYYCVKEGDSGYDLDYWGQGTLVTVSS VL: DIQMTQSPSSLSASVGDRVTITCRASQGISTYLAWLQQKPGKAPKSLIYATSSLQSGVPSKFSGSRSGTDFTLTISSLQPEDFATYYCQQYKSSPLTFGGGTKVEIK
4. H4H588N (antibody, human IgG4, V domains shown, also called H2M588N variable regions) VH: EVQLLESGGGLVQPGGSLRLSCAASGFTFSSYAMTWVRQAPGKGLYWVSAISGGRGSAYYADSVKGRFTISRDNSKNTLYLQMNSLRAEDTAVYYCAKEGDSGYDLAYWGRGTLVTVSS VL: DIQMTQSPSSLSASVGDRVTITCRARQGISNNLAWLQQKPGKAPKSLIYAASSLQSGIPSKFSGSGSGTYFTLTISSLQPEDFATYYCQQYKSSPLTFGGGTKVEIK

[1.1, 62.9, 8.5, 1.6]
